TEST DETAILS: in vivo
COND: male, SD, rat, po, 10 mg/kg

| COMPOUND | UNIT LABEL | Tmax |
| --- | --- | --- |
| Cc1nnn([C@@H](c2ccccc2)C2CCN(C(=O)c3cc(-c4nc5cc(NC(=O)[C@@H]6C[C@@H]6F)ccc5o4)ccn3)CC2)n1 [Compound A] | h | 1.67 |

* * *

TEST DETAILS: in vivo
COND: male, SD, rat, iv, 2 mg/kg

| QUERY SMILES | UNIT LABEL | half-life |
| --- | --- | --- |
| Cc1nnn([C@@H](c2ccccc2)C2CCN(C(=O)c3cc(-c4nc5cc(NC(=O)[C@@H]6C[C@@H]6F)ccc5o4)ccn3)CC2)n1 | min | 53.8 |

* * *

TEST DETAILS: in vivo
COND: male, SD, rat

| QUERY SMILES | UNIT LABEL | bioavailability |
| --- | --- | --- |
| Cc1nnn([C@@H](c2ccccc2)C2CCN(C(=O)c3cc(-c4nc5cc(NC(=O)[C@@H]6C[C@@H]6F)ccc5o4)ccn3)CC2)n1 | % | 26.1 |

* * *

TEST DETAILS: in vivo
COND: male, SD, rat, iv, 2 mg/kg
OBSERVED PROPERTY: AUC (ng·h/mL)

| QUERY SMILES | OBSERVED PROPERTY | UNIT LABEL | TEST VALUE |
| --- | --- | --- | --- |
| Cc1nnn([C@@H](c2ccccc2)C2CCN(C(=O)c3cc(-c4nc5cc(NC(=O)[C@@H]6C[C@@H]6F)ccc5o4)ccn3)CC2)n1 | AUC | ng·h/mL | 2010 |

* * *

TEST DETAILS: in vivo
COND: male, SD, rat, po, 10 mg/kg
Protocol: Test objective: by giving test compounds to SD rats via single-dose intravenous and intragastric administration and measuring the concentrations of the test compounds in plasma of rats, the pharmacokinetic characteristics and bioavailability of the test compounds in rats were evaluated. […] The main pharmacokinetic parameters were analysed by a non-compartmental model using WinNonlin 8.0 software.

| QUERY SMILES | UNIT LABEL | Cmax |
| --- | --- | --- |
| Cc1nnn([C@@H](c2ccccc2)C2CCN(C(=O)c3cc(-c4nc5cc(NC(=O)[C@@H]6C[C@@H]6F)ccc5o4)ccn3)CC2)n1 | ng/mL | 715 |

* * *

TEST DETAILS: in vivo
COND: male, SD, rat, po, 10 mg/kg

| QUERY SMILES | UNIT LABEL | AUC |
| --- | --- | --- |
| Cc1nnn([C@@H](c2ccccc2)C2CCN(C(=O)c3cc(-c4nc5cc(NC(=O)[C@@H]6C[C@@H]6F)ccc5o4)ccn3)CC2)n1 | ng·h/mL | 2610 |
